# key: entry, value: inhibition
Target: Muscarinic acetylcholine receptor M1 (Homo sapiens) (UniProt P11229)
Sequence (P11229 whole entry, looked up): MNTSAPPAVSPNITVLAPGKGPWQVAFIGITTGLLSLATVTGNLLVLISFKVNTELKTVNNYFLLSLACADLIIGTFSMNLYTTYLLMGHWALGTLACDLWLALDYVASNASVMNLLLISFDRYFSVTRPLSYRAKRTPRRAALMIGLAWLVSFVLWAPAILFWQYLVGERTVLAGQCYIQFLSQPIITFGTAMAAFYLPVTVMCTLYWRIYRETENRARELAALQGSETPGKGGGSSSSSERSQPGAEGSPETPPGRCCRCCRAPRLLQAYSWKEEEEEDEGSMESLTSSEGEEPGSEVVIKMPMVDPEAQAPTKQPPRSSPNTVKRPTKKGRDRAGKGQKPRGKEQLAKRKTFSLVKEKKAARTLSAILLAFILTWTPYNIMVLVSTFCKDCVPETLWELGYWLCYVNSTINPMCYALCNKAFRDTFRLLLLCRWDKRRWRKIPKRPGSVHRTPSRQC
Assay: CHRM1 blockers of acetylcholine calcium response – CHO-K1 cells, Fluo-8 calcium fluorescence, 1536-well, primary screen (AID 588852);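 note: peak over basal fluorescence ratio during 140 s after agonist addition; 0% = ACh EC80 plus DMSO and 100% = DMSO alone without agonist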
Settings: CHO-K1 hM1, Fluo-8 calcium fluorescence, ACh EC80 antagonist; at 3 µM; hits give high values
Out of some 360,000 compounds screened, about 4,600 (1.3%) were called active. For the sample, actives were picked, then their nearest neighbours and some compounds at random.
Answer in %, number only, no unit symbol.

Observed inhibition on Muscarinic acetylcholine receptor M1 (Homo sapiens) (UniProt P11229) for "COc1cc(OC)nc(N/N=C(\c2ccccc2)c2ccncc2)n1" , please.
1.36

Notebook entry, Muscarinic acetylcholine receptor M1 (Homo sapiens) (UniProt P11229) assay: inhibition of "O=C(COc1ccc(Cl)cc1)Nc1ccccc1CO" = ?
3.31

I'm curious: which inhibition was measured for "Cc1cc(N2CCCC2)ccc1NC(=O)COc1ccc(Cl)cc1" tested on Muscarinic acetylcholine receptor M1 (Homo sapiens) (UniProt P11229)?
38.5

Write down the reported inhibition of C[C@H]([C@@H](O)[C@@H](O)[C@@H](C)C(C)(C)C)[C@H]1CC[C@H]2C3CC[C@H]4C[C@H](OS(=O)(=O)O)[C@@H](OS(=O)(=O)O)C[C@]4(C)[C@H]3CC[C@]12C (stereo not given in full) , test system: Muscarinic acetylcholine receptor M1 (Homo sapiens) (UniProt P11229).
-9.61

Kindly state the measured inhibition obtained for "COc1cc(/C=C2/SC(=S)N(Cc3ccccc3)C2=O)cc(OC)c1O" with Muscarinic acetylcholine receptor M1 (Homo sapiens) (UniProt P11229).
30.7

Form field: inhibition recorded for CCOC(=O)C1=CCC2C(=O)N(Cc3ccccc3)C(=O)C12 (stereo not given) with Muscarinic acetylcholine receptor M1 (Homo sapiens) (UniProt P11229) (enter value)
-8.51

Cited source for all entries: PubChem BioAssay AID588852
